Listed here: items and their measured viability at 100 nM.
Test: Cyto-toxicity assay (MTT) in MT2 cells without virus
Type: cell-based
Conditions: human
// units = %; emit number, no label

(Q) Dear colleague, I am looking for the recorded viability at 100 nM of the following compound: C=C(C)[C@@H]1CC[C@]2(C(=O)N[C@@H]3C[C@H](C(=O)N4CCCCC4)C3(C)C)CC[C@]3(C)[C@H](CC[C@@H]4[C@@]5(C)CC[C@H](OC(=O)[C@H]6[C@@H](CC(=O)O)C6(C)C)C(C)(C)[C@@H]5CC[C@]43C)[C@@H]12
(A) 82

(Q) Dear colleague, I am looking for the recorded viability at 100 nM of the following compound: CCN1CCN(C2CCN(C(=O)[C@]34CC[C@@H](C5(C)CC5)[C@@H]3[C@H]3CC[C@@H]5[C@@]6(C)CC[C@H](OC(=O)[C@H]7C[C@@H](C(=O)O)C7(C)C)C(C)(C)[C@@H]6CC[C@@]5(C)[C@]3(C)CC4)CC2)CC1
(A) 100
